Recorded values, source ChEMBL document CHEMBL1201862.

- Tested on: MDA-MB-231
- assay comment: NCI tumour cell line growth inhibition, 48 h
Activity calls are given as the source filed them. Cut-off read from the data, not from the text of the source: active = GI50 up to about 1.1 µM and inactive = higher.
Lab note: assign the record to one of active, inactive

Reference set (5 entries):
compound: COc1cc(CN(C)N2C(=O)c3cccc4cc([N+](=O)[O-])cc(c34)C2=O)cc(OC)c1OC
cat: inactive

compound: CCC(=O)OC1=C(c2ccccc2)Sc2ccc(Cl)cc2-n2cccc21
cat: inactive

compound: CN(C)CCNc1ccc2nnn3c4ccc(O)cc4c(=O)c1c23
cat: active

compound: CSCCC(NC(=O)C(Cc1c[nH]c2ccccc12)NC(=O)CCNC(=O)OC(C)(C)C)C(=O)NC(CC(=O)O)C(=O)NC(Cc1ccccc1)C(N)=O (centres undefined)
cat: inactive

compound: COc1ccc(C(=O)O[C@H]2CC[C@@]3(C)[C@@H]4CC[C@H]5[C@]6(O)C[C@H](O)[C@@]7(O)[C@@H](CN8C[C@@H](C)CC[C@H]8[C@@]7(C)O)[C@]6(O)C[C@@]53OC24O)cc1OC
cat: inactive

Lab log entry: "CC(=O)OCCOCn1c2c(c(=S)[nH]c1=O)CCC2" — outcome as called in the assay? inactive

Lab log entry: "COc1cc(O)c2c(O)c3c(c4c2c1[C@]1(C4)C(C)=CCCC1(C)C)[C@H](O)[C@@]1(O)CC(O)=C(C(N)=O)C(=O)[C@@]1(O)C3=O" — outcome as called in the assay? active

Lab log entry: "COc1ccc(C(=O)c2cc(OC)c(OC)c(OC)c2)cc1" — outcome as called in the assay? active

Lab log entry: "O=c1cnn(C/C=C/CP(=O)(O)O)c(=O)[nH]1" — outcome as called in the assay? inactive

====

- Tested on: SF-295
- assay comment: NCI tumour cell line growth inhibition, 48 h
Activity calls are given as the source filed them. Cut-off read from the data, not from the text of the source: active = GI50 up to about 1.1 µM and inactive = higher.
recorded endpoint: GI50

molecule: COC(=O)C1CCN(C(=O)OC(C)(C)C)CC1
GI50: > 100 µM (inactive)
--
molecule: O=C(O)c1cc(-c2ccccc2O)nc2ccccc12
GI50: > 100 µM (inactive)
--
molecule: Cc1c([N+](=O)[O-])ccc2c(NCCCN(C)C)ccnc12
GI50: 22.2 µM (inactive)
--
molecule: O=C(O)C(CS)NCc1c2ccccc2[n+]([O-])c2ccccc12 (configuration not stated)
GI50: 58.1 µM (inactive)
--
molecule: CSc1ccc(/C=C2\CNC/C(=C\c3ccc(SC)cc3)C2=O)cc1
GI50: 29.4 µM (inactive)
--
molecule: COC(=O)CCC1(C)C2CCC1(C)/C(=N/O)C2 (configuration not stated)
GI50: > 100 µM (inactive)

Response field GI50 (SF-295) for item "C[C@]12CC[C@H](O)CC1=CC[C@@H]1[C@@H]2CC[C@]2(C)C(=N/N)/C(=N\O)C[C@@H]12" : 35.1 µM (inactive)

====

- System: CAKI-1
- assay comment: NCI tumour cell line growth inhibition, 48 h
Active and inactive are the calls of the source. No stated cut-off is given here; in the data, active = GI50 up to about 1.1 µM and inactive = higher.
recorded endpoint: GI50

compound: CN(C)/N=N/c1ccc2[nH]c(=O)[nH]c2c1
recorded endpoint: GI50
reported value: > 100 µM (inactive)
//
compound: COc1cccc(C2c3cc4c(cc3OC(C)(N3CCCC3)C2C)OCO4)c1 (stereo not drawn)
recorded endpoint: GI50
reported value: 17.1 µM (inactive)

Looking up "O=C1/C(=C/c2cccc(Cl)c2)CCCc2ccccc21" , I found its GI50 recorded as 24.1 µM (inactive)
